From: patent US8101601B2

Provide the reported solubility at 24 h of each item.
Test: Determination of the solubility (suspension shaken 24 h at room temperature, HPLC)
Type: physicochemical
Details: 5% dextrose adjusted to pH 4 with hydrochloric acid, pH 4, saline or isotonic, thermodynamic from solid
Structures can show the parent of a compound that is named as a salt.

Note solubility at 24 h for the compound shown: NCCCCCC(=O)N(C[C@H]1CN(c2ccc(N3CCOCC3=O)cc2)C(=O)O1)C(=O)c1ccc(Cl)s1 [Example 21, hydrochloride]
> 3000 µg/mL

Note solubility at 24 h for the compound shown: CCCCNCCCC(=O)N(C[C@H]1CN(c2ccc(N3CCOCC3=O)cc2)C(=O)O1)C(=O)c1ccc(Cl)s1 [Example 22, hydrochloride]
> 3000 µg/mL

Note solubility at 24 h for the compound shown: NCCCCC(=O)N(C[C@H]1CN(c2ccc(N3CCOCC3=O)cc2)C(=O)O1)C(=O)c1ccc(Cl)s1 [Example 20, hydrochloride]
> 3000 µg/mL

Note solubility at 24 h for the compound shown: CNCCCC(=O)N(C[C@H]1CN(c2ccc(N3CCOCC3=O)cc2)C(=O)O1)C(=O)c1ccc(Cl)s1 [Example 13, hydrochloride]
2700 µg/mL

----------
Provide the reported solubility at 24 h of each item.
Assay: Determination of the solubility (suspension shaken 24 h at room temperature, HPLC)
Type: physicochemical
Details: dilute hydrochloric acid (pH 4), pH 4, aqueous buffer, thermodynamic from solid, room temperature, 24 h
Where a name gives a salt, the structure may show the parent alone.
Give your result in µg/mL as a bare value.

Note solubility at 24 h for the molecule shown: CC(C)[C@@H](N)C(=O)OCC(=O)N(C[C@H]1CN(c2ccc(N3CCOCC3=O)cc2)C(=O)O1)C(=O)c1ccc(Cl)s1 [Example 6, hydrochloride]
860

Note solubility at 24 h for the molecule shown: CC(C)[C@H](N)C(=O)OCC(=O)N(C[C@H]1CN(c2ccc(N3CCOCC3=O)cc2)C(=O)O1)C(=O)c1ccc(Cl)s1 [Example 3, hydrochloride]
340

----------
Assay: Stability in buffer at various pH values (HPLC, 37° C., 24 h)
Format: physicochemical
Settings: buffer pH 7.4, 37° C., 4 h
Structures can show the parent of a compound that is named as a salt.
Outcome label depends on % test substance after 4 h [F(t = 4 h) × 100/F(t = 0 h)] relative to 50%: at/above gives label 1, below gives label 0.

Check this compound for % test substance after 4 h [F(t = 4 h) × 100/F(t = 0 h)] at or above 50%: NCCCCCC(=O)N(C[C@H]1CN(c2ccc(N3CCOCC3=O)cc2)C(=O)O1)C(=O)c1ccc(Cl)s1 [Example 21, hydrochloride]
label 1

Check this compound for % test substance after 4 h [F(t = 4 h) × 100/F(t = 0 h)] at or above 50%: CC(C)[C@H](N)C(=O)OCC(=O)N(C[C@H]1CN(c2ccc(N3CCOCC3=O)cc2)C(=O)O1)C(=O)c1ccc(Cl)s1 [Example 3, hydrochloride]
label 1

Check this compound for % test substance after 4 h [F(t = 4 h) × 100/F(t = 0 h)] at or above 50%: N[C@@H](Cc1c[nH]cn1)C(=O)OCC(=O)N(C[C@H]1CN(c2ccc(N3CCOCC3=O)cc2)C(=O)O1)C(=O)c1ccc(Cl)s1 [Example 8, dihydrochloride]
label 0

Check this compound for % test substance after 4 h [F(t = 4 h) × 100/F(t = 0 h)] at or above 50%: O=C(OCC(=O)N(C[C@H]1CN(c2ccc(N3CCOCC3=O)cc2)C(=O)O1)C(=O)c1ccc(Cl)s1)[C@@H]1CCCN1 [Example 4, hydrochloride]
label 0

Check this compound for % test substance after 4 h [F(t = 4 h) × 100/F(t = 0 h)] at or above 50%: NCCCCC(=O)N(C[C@H]1CN(c2ccc(N3CCOCC3=O)cc2)C(=O)O1)C(=O)c1ccc(Cl)s1 [Example 20, hydrochloride]
label 0

----------
Experiment: Stability in buffer at various pH values (HPLC, 37° C., 24 h)
Format: physicochemical
Settings: buffer pH 7.4, 37° C., 4 h
Description: 0.3 mg of the test substance is weighed into a 2 ml HPLC vial and 0.5 ml of acetonitrile is added. The substance is dissolved by putting the sample vessel in an ultrasonic bath for about 10 seconds. […] 5 μl portions of the test solution are analysed by HPLC for their content of unchanged test substance every hour over a period of 24 hours at 37° C. The percentage areas of the appropriate peaks are used for quantification. […]
Counter-ions that a name gives are not always drawn.
measurementKind: % test substance after 4 h [F(t = 4 h) × 100/F(t = 0 h)]

Note % test substance after 4 h [F(t = 4 h) × 100/F(t = 0 h)] for the molecule shown: NCCCC(=O)N(C[C@H]1CN(c2ccc(N3CCOCC3=O)cc2)C(=O)O1)C(=O)c1ccc(Cl)s1 [Example 19, hydrochloride]
0%

Note % test substance after 4 h [F(t = 4 h) × 100/F(t = 0 h)] for the molecule shown: CNCCCCC(=O)N(C[C@H]1CN(c2ccc(N3CCOCC3=O)cc2)C(=O)O1)C(=O)c1ccc(Cl)s1 [Example 14, hydrobromide]
0%

Note % test substance after 4 h [F(t = 4 h) × 100/F(t = 0 h)] for the molecule shown: CNCCCC(=O)N(C[C@H]1CN(c2ccc(N3CCOCC3=O)cc2)C(=O)O1)C(=O)c1ccc(Cl)s1 [Example 12, hydrobromide]
0%

Note % test substance after 4 h [F(t = 4 h) × 100/F(t = 0 h)] for the molecule shown: CC(C)(N)C(=O)OCC(=O)N(C[C@H]1CN(c2ccc(N3CCOCC3=O)cc2)C(=O)O1)C(=O)c1ccc(Cl)s1 [Example 2, hydrochloride]
96%

----------
Assay: Stability in buffer at various pH values (HPLC, 37° C., 24 h)
Type: physicochemical
Conditions: buffer pH 7.4, 37° C., 4 h
Counter-ions that a name gives are not always drawn.
measurementKind: % test substance after 4 h [F(t = 4 h) × 100/F(t = 0 h)]

Note % test substance after 4 h [F(t = 4 h) × 100/F(t = 0 h)] for the compound shown: CC(C)[C@@H](N)C(=O)OCC(=O)N(C[C@H]1CN(c2ccc(N3CCOCC3=O)cc2)C(=O)O1)C(=O)c1ccc(Cl)s1 [Example 6, hydrochloride]
90%

Note % test substance after 4 h [F(t = 4 h) × 100/F(t = 0 h)] for the compound shown: CNCC(=O)OCC(=O)N(C[C@H]1CN(c2ccc(N3CCOCC3=O)cc2)C(=O)O1)C(=O)c1ccc(Cl)s1 [Example 5, hydrochloride]
68%

Note % test substance after 4 h [F(t = 4 h) × 100/F(t = 0 h)] for the compound shown: NCCCC[C@H](N)C(=O)OCC(=O)N(C[C@H]1CN(c2ccc(N3CCOCC3=O)cc2)C(=O)O1)C(=O)c1ccc(Cl)s1 [Example 7, dihydrochloride]
48%

----------
Test: Stability in buffer at various pH values (HPLC, 37° C., 24 h)
Assay type: physicochemical
Conditions: buffer pH 7.4, 37° C., 24 h
Protocol: 0.3 mg of the test substance is weighed into a 2 ml HPLC vial and 0.5 ml of acetonitrile is added. The substance is dissolved by putting the sample vessel in an ultrasonic bath for about 10 seconds. […] 5 μl portions of the test solution are analysed by HPLC for their content of unchanged test substance every hour over a period of 24 hours at 37° C. The percentage areas of the appropriate peaks are used for quantification. […]
Structures can show the parent of a compound that is named as a salt.
measurementKind: % Test substance after 24 h [F(t = 24 h) × 100/F(t = 0 h)]
Returns: string containing the numeric result and its unit.

Note % Test substance after 24 h [F(t = 24 h) × 100/F(t = 0 h)] for the molecule shown: CNCCCC(=O)N(C[C@H]1CN(c2ccc(N3CCOCC3=O)cc2)C(=O)O1)C(=O)c1ccc(Cl)s1 [Example 12, hydrobromide]
0%

Note % Test substance after 24 h [F(t = 24 h) × 100/F(t = 0 h)] for the molecule shown: CC(C)[C@H](N)C(=O)SCC(=O)N(C[C@H]1CN(c2ccc(N3CCOCC3=O)cc2)C(=O)O1)C(=O)c1ccc(Cl)s1 [Example 10, hydrobromide]
0%

Note % Test substance after 24 h [F(t = 24 h) × 100/F(t = 0 h)] for the molecule shown: CC(C)[C@@H](N)C(=O)OCC(=O)N(C[C@H]1CN(c2ccc(N3CCOCC3=O)cc2)C(=O)O1)C(=O)c1ccc(Cl)s1 [Example 6, hydrochloride]
59%

Note % Test substance after 24 h [F(t = 24 h) × 100/F(t = 0 h)] for the molecule shown: CNCC(=O)OCC(=O)N(C[C@H]1CN(c2ccc(N3CCOCC3=O)cc2)C(=O)O1)C(=O)c1ccc(Cl)s1 [Example 5, hydrochloride]
14%

Note % Test substance after 24 h [F(t = 24 h) × 100/F(t = 0 h)] for the molecule shown: NCC(=O)OCC(=O)N(C[C@H]1CN(c2ccc(N3CCOCC3=O)cc2)C(=O)O1)C(=O)c1ccc(Cl)s1 [Example 1, hydrochloride]
3%

Note % Test substance after 24 h [F(t = 24 h) × 100/F(t = 0 h)] for the molecule shown: N[C@@H](Cc1c[nH]cn1)C(=O)OCC(=O)N(C[C@H]1CN(c2ccc(N3CCOCC3=O)cc2)C(=O)O1)C(=O)c1ccc(Cl)s1 [Example 8, dihydrochloride]
0%

Note % Test substance after 24 h [F(t = 24 h) × 100/F(t = 0 h)] for the molecule shown: NCCCCC(=O)N(C[C@H]1CN(c2ccc(N3CCOCC3=O)cc2)C(=O)O1)C(=O)c1ccc(Cl)s1 [Example 20, hydrochloride]
0%

Note % Test substance after 24 h [F(t = 24 h) × 100/F(t = 0 h)] for the molecule shown: CNCCCCC(=O)N(C[C@H]1CN(c2ccc(N3CCOCC3=O)cc2)C(=O)O1)C(=O)c1ccc(Cl)s1 [Example 14, hydrobromide]
0%
